- ASSAY_SUMMARY: Clinical pharmacokinetics of carmegliptin (plasma and urine) alone or with verapamil
- Format: in vivo, human
- COND: male, human, plasma, oral, carmegliptin 150 mg + chronic verapamil 80 mg t.i.d., day 15; geometric mean (CV%)

MOLECULE: COc1cc2c(cc1OC)[C@@H]1C[C@H](N)[C@@H](N3C[C@@H](CF)CC3=O)CN1CC2 [Carmegliptin]
AUC(0-inf) (µg·h/mL): 4.59

---

- ASSAY_SUMMARY: Clinical pharmacokinetics of carmegliptin (plasma and urine) alone or with verapamil
- Type: in vivo, human
- COND: male, human, plasma, oral, 150 mg, carmegliptin 150 mg single dose alone, day 1; geometric mean (CV%); read-out: AUClast
ASSAY_METRIC: AUC(0-t) (ng·h/mL)

SAMPLE_SMILES: COc1cc2c(cc1OC)[C@@H]1C[C@H](N)[C@@H](N3C[C@@H](CF)CC3=O)CN1CC2
ASSAY_METRIC: AUC(0-t)
ENDPOINT_UNIT: ng·h/mL
OBSERVED_VALUE: 3010

---

- ASSAY_SUMMARY: Clinical pharmacokinetics of carmegliptin (plasma and urine) alone or with verapamil
- Assay type: in vivo, human
- COND: male, human, plasma, oral, carmegliptin 150 mg + acute verapamil 80 mg t.i.d., day 10; geometric mean (CV%); read-out: AUC0–24
- Procedure: All urine produced by subjects during each sampling interval was collected in pre-weighed polyethylene containers. […] Plasma and urine samples were analyzed for carmegliptin by high-performance liquid chromatography combined with tandem mass spectrometric detection at F. Hoffmann-La Roche Ltd, Basel, Switzerland. The lower limit of quantification was 1 ng/mL for plasma and 20 ng/mL for urine.
ASSAY_METRIC: AUC(0-t) (ng·h/mL)

SAMPLE_SMILES: COc1cc2c(cc1OC)[C@@H]1C[C@H](N)[C@@H](N3C[C@@H](CF)CC3=O)CN1CC2
ASSAY_METRIC: AUC(0-t)
OBSERVED_VALUE: 2950

---

- ASSAY_SUMMARY: Clinical pharmacokinetics of carmegliptin (plasma and urine) alone or with verapamil
- Type: in vivo, human
- COND: male, human, plasma, oral, carmegliptin 150 mg + chronic verapamil 80 mg t.i.d., day 15; geometric mean (CV%); read-out: AUClast
ASSAY_METRIC: AUC(0-t) (ng·h/mL)

SAMPLE_SMILES: COc1cc2c(cc1OC)[C@@H]1C[C@H](N)[C@@H](N3C[C@@H](CF)CC3=O)CN1CC2
ENDPOINT_UNIT: ng·h/mL
OBSERVED_VALUE: 4280

---

- ASSAY_SUMMARY: Clinical pharmacokinetics of carmegliptin (plasma and urine) alone or with verapamil
- Assay type: in vivo, human
- COND: male, human, plasma, oral, 150 mg, carmegliptin 150 mg single dose alone, day 1; geometric mean (CV%); read-out: Vz/F
ASSAY_METRIC: Vd/F (L)

COMPOUND: COc1cc2c(cc1OC)[C@@H]1C[C@H](N)[C@@H](N3C[C@@H](CF)CC3=O)CN1CC2 [Carmegliptin]
OBSERVED_VALUE: 1360

---

- ASSAY_SUMMARY: Clinical pharmacokinetics of carmegliptin (plasma and urine) alone or with verapamil
- Assay type: in vivo, human
- COND: male, human, plasma and urine, oral, 150 mg; read-out: CLr (renal clearance) (converted)
ASSAY_METRIC: CL renal

COMPOUND: COc1cc2c(cc1OC)[C@@H]1C[C@H](N)[C@@H](N3C[C@@H](CF)CC3=O)CN1CC2 [Carmegliptin]
OBSERVED_VALUE: 215 mL/min
